// data source = paper PMC6028563

# testedTarget: human A2B AR (Homo sapiens, UniProt P29275)
# Construct: expressed in transfected cells; host or cells: CHO cells
# Sequence (P29275 whole entry): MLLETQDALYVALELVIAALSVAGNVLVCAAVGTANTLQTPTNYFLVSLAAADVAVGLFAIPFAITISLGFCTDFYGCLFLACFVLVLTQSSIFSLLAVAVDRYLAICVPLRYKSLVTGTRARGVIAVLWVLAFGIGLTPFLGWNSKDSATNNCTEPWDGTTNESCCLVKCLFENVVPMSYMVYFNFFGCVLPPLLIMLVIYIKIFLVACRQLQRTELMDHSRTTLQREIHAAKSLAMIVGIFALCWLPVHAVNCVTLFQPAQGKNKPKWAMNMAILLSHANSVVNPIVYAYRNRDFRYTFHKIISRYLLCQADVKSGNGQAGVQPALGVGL
# procedureSummary: Radioligand binding assay at human A2B AR vs. [^3H]PSB-603
# conditionContext: CHO cell membranes, n = 2 (n = 3 where marked a), read-out: Ki ± SEM, A2B vs. [^3H]PSB-603
# Description: Membrane preparations and radioligand binding assays at rat A1 (rat brain cortex) and rat A2A ARs (rat brain striatum) were performed as previously described (Ozola et al., [2003]; Alnouri et al., [2015]). […] The synthesized tetrahydropyrazino[2,1-f ]purinediones 13–20 were evaluated in radioligand binding assays for their affinity to A1 ARs of rat brain cortical membrane and to A2A ARs of rat brain striatal membrane preparations. […]
reportedProperty: Ki

Given the entry CCn1c(=O)c2c(nc3n2CCN(Cc2ccccc2C(F)(F)F)C3)n(C)c1=O [Compound 14d] , report its measured Ki.
> 1000 nM

Quick one: Ki for CCn1c(=O)c2c(nc3n2CCN(Cc2cc(F)cc(C(F)(F)F)c2)C3)n(C)c1=O [Compound 14p] ?
> 1000 nM

Request the reported Ki associated with CCn1c(=O)c2c(nc3n2CCN(Cc2cc(C(F)(F)F)ccc2Cl)C3)n(CC)c1=O [Compound 15n]
> 1000 nM

Can you share its Ki? I mean this compound: C#CCn1c(=O)c2c(nc3n2CCN(CCc2ccccc2OC)C3)n(CC)c1=O [Compound 20i]
> 1000 nM
